- Test summary: Plasma pharmacokinetics following a single intravenous and subcutaneous injection of a combination of formoterol and budesonide
- Test conditions: female, Gottingen, minipig, in vivo, Plasma concentration of formoterol, SC5 0.4 μg/kg, combination, female 2-0623, 0.0833 hr

Compound: COc1ccc(CC(C)NCC(O)c2ccc(O)c(NC=O)c2)cc1 (stereo not shown) [Formoterol, formoterol]
concentration at 0.0833 hr, ng/mL: 0.256

====

- Test summary: in vivo
- Test conditions: male, Gottingen, minipig, in vivo, sc, 0.4 ug/kg, t1/2
- Experimental: Salmeterol xinafoate was formulated in 5% PEG-400 in 0.9% saline, USP, at concentrations of 0.1, 1, 10, and 100 μg/mL. 1 male and 1 female non-naive Gottingen minipigs (18.4 to 19.5 kg at the time of the IV dose) were utilized. […] Plasma samples were analyzed for salmeterol using a qualified liquid chromatography/mass spectrometry/mass mass spectrometry (LC/MS/MS) method. The lower limit of quantitation (LLOQ) was 2.50 pg/mL. Samples were analyzed within a maximum of 14.0 days of collection. […]
Measurement name: half-life (h)

Compound: OCc1cc(C(O)CNCCCCCCOCCCCc2ccccc2)ccc1O (racemic)
Measurement name: half-life
Test result: 2.94

====

- Test summary: in vivo
- Test conditions: male, Gottingen, minipig, in vivo, sc, 4 ug/kg, AUCinf
- Experimental: Salmeterol xinafoate was formulated in 5% PEG-400 in 0.9% saline, USP, at concentrations of 0.1, 1, 10, and 100 μg/mL. 1 male and 1 female non-naive Gottingen minipigs (18.4 to 19.5 kg at the time of the IV dose) were utilized. […] Plasma samples were analyzed for salmeterol using a qualified liquid chromatography/mass spectrometry/mass mass spectrometry (LC/MS/MS) method. The lower limit of quantitation (LLOQ) was 2.50 pg/mL. Samples were analyzed within a maximum of 14.0 days of collection. […]
Measurement name: AUC(0-inf) (ng·h/mL)

Compound: OCc1cc(C(O)CNCCCCCCOCCCCc2ccccc2)ccc1O (racemic)
Uom: ng·h/mL
Test result: 1.29

====

- Test summary: Plasma pharmacokinetics following a single intravenous and subcutaneous injection of a combination of formoterol and budesonide
- Test conditions: female, Gottingen, minipig, in vivo, t1/2, formoterol 0.4 μg/kg SC1 single site, combination, female 2-0623

Compound: COc1ccc(CC(C)NCC(O)c2ccc(O)c(NC=O)c2)cc1 (stereo not shown) [Formoterol, formoterol]
half-life: 2.33 h

====

- Test summary: Plasma pharmacokinetics following a single intravenous and subcutaneous injection of a combination of formoterol and budesonide
- Test conditions: male, Gottingen, minipig, in vivo, iv, Plasma concentration of formoterol, IV 0.4 μg/kg, combination, male 1-0771, 0.0833 hr
- Description: Formoterol fumarate dehydrate and budesonide were formulated in 2% PEG-400 in saline. 1 male and 1 female non-naive Gottingen minipigs (8 to 12 kg upon receipt per protocol) were utilized. The animals were housed individually. […] Plasma samples were analyzed for formoterol and budesonide using a qualified liquid chromatography/mass spectrometry/mass mass spectrometry (LC/MS/MS) method. The lower limit of quantitation (LLOQ) was 1.00 pg/mL for formoterol and 25.0 pg/mL for budesonide. […]

Compound: COc1ccc(CC(C)NCC(O)c2ccc(O)c(NC=O)c2)cc1 (stereo not shown)
concentration at 0.0833 hr [ng/mL]: 0.0996

====

- Test summary: in vivo
- Test conditions: female, Gottingen, minipig, in vivo, sc, 0.04 ug/kg, Cmax

Compound: OCc1cc(C(O)CNCCCCCCOCCCCc2ccccc2)ccc1O (racemic)
Cmax (pg/mL): 8.31

These entries and their values trace back to patent US9132084B2.
